# system: human TLR8 (Homo sapiens)
# Sequence (Q9NR97 27-1041): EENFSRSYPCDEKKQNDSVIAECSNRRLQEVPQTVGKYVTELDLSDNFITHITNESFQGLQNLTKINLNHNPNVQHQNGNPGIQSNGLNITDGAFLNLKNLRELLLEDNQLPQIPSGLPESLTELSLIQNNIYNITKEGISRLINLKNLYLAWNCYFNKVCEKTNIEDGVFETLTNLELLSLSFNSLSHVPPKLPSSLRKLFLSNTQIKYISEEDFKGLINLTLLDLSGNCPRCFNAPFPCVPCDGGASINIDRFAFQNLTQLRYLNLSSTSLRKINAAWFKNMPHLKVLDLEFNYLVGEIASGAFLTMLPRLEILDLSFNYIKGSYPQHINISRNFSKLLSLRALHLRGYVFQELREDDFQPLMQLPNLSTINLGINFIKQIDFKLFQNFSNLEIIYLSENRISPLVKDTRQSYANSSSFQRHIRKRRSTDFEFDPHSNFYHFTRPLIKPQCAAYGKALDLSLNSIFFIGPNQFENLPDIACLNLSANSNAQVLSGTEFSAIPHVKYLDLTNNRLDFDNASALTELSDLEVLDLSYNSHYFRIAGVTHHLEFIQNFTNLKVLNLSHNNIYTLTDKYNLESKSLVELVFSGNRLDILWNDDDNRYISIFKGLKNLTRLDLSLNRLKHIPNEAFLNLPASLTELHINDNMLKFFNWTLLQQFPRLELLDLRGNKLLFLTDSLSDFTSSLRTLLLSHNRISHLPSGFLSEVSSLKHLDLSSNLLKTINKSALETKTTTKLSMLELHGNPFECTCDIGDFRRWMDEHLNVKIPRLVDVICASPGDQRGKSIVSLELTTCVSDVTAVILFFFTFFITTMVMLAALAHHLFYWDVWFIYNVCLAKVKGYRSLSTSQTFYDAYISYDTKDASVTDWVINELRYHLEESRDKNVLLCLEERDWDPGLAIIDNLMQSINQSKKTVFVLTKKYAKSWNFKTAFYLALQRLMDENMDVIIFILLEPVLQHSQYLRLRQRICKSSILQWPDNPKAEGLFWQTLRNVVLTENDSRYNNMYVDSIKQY
# experimentNotes: TLR8 inhibition reporter assay (HEK-Blue cells, SEAP reporter, R848 stimulation)
# measurementConditions: HEK-Blue cells overexpressing human TLR8, R848 15.9 μM
pIC50: −log10 of the molar value.
Class field: derived from pIC50; ranges 0: < 6; 1: ≥ 6 and < 7; 2: ≥ 7

Examples from the recorded data:
CCc1c(-c2ccc(OC)c(OC)c2)[nH]c2ccc(C3CCN(C(=O)CN4CCCC(C(=O)N(CC)CC)C4)CC3)cc12 (centres unmarked) [Example 168] :: 2
COc1ccc(-c2[nH]c3cc(C)c(C4CCN(C5CCN(C(C)C)CC5)CC4)cc3c2C)cc1OC :: 0
COc1ccc(-c2[nH]c3ccc(C4CCN(C5CCN(CC(O)CO)CC5)CC4)cc3c2C)cc1OC (centres unmarked) :: 1

Please look at the following compound next.
In: Would you mind sorting `COc1ccc(-c2[nH]c3ccc(C4CCN(C(=O)CCN(C)C)CC4)cc3c2CC(F)(F)F)cc1OC` into the appropriate category?
Out: 2

meta.source: patent US11180474B2
